Subject Of Test: GLUT1 (Homo sapiens, UniProt P11166)
Sequence (P11166 whole entry, species assumed): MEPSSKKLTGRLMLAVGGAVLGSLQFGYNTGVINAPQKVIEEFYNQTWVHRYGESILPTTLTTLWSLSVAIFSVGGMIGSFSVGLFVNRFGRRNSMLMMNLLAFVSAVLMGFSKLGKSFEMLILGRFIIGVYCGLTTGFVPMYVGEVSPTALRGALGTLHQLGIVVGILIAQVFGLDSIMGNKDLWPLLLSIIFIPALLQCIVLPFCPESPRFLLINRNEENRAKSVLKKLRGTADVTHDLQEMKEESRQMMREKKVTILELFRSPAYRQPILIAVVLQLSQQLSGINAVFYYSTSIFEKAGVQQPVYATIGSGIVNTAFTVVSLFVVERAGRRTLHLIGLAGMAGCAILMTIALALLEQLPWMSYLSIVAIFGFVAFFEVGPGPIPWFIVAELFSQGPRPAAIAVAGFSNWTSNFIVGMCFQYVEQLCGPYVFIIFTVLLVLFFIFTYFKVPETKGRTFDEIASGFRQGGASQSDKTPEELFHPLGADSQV
Protocol: Indirect measurement of GLUT1 activity by quantification of intracellular ATP levels (glucose induced ATP increase)
Format: cell-based
Set-up: endogenous in cells; host or cells: DLD1 or CHO-K1
Experimental Setup: read-out: IC50 regarding glucose induced ATP increase (GLUT1 inhibition)
pIC50: −log10 of the molar value.
Quick rule for you: pIC50 at 7 or higher means Condition met, lower means Condition not met.

>  <Compound>
COc1ccc(Cn2nc(C)c(NC(=O)c3cc(C)nc4ccc(C)cc34)c2C)cc1 [Example 4]

>  <Label Class>
Condition met

$$$$
>  <Compound>
Cc1cc(Br)c2nc(C(F)(F)F)cc(C(=O)Nc3c(C)nn(Cc4ccc(F)cc4)c3C)c2c1 [Example 21]

>  <Label Class>
Condition met

$$$$
>  <Compound>
COc1ccc(Cn2nc(C(F)(F)F)c(NC(=O)c3cc(C(N)=O)nc4ccccc34)c2C)cn1 [Example 280]

>  <Label Class>
Condition met

$$$$
>  <Compound>
Cc1nn(Cc2ccc(C(=O)N[C@H]3CCCC[C@@H]3O)cc2)c(C)c1NC(=O)c1cc(C(F)(F)F)nc2ccc(Br)cc12 [Example 1215]

>  <Label Class>
Condition not met

$$$$
>  <Compound>
COc1cc(C(=O)Nc2c(C)nn(Cc3ncccc3C)c2C)c2ccccc2n1 [Example 1248]

>  <Label Class>
Condition not met

$$$$
>  <Compound>
CSc1cc(C(=O)Nc2c(C)nn(Cc3ccc(C#N)cc3)c2C)c2ccccc2n1 [Example 381]

>  <Label Class>
Condition met

$$$$
>  <Compound>
Cc1nn(Cc2ccncc2C#N)c(C)c1NC(=O)c1cc(C(F)(F)F)nc2ccc(Br)cc12 [Example 1074]

>  <Label Class>
Condition met

$$$$
>  <Compound>
Cc1nn(Cc2c(F)cccc2F)c(C)c1NC(=O)c1cc(C(F)(F)F)nc2ccc(Br)cc12 [Example 13]

>  <Label Class>
Condition met

$$$$
>  <Compound>
Cc1nn(Cc2ccc(C(=O)NCC(F)F)cc2)c(C)c1NC(=O)c1cc(C(F)(F)F)nc2ccc(Br)cc12 [Example 1080]

>  <Label Class>
Condition met

$$$$
>  <Compound>
Cc1nn(Cc2ccc(C(N)=O)cc2)c(C)c1NC(=O)c1cc(C(F)(F)F)nc2ccc(Br)cc12 [Example 133]

>  <Label Class>
Condition met

$$$$
>  <Compound>
COCCNC(=O)c1ccc(Cn2nc(C)c(NC(=O)c3cc(C(N)=O)nc4cc(F)ccc34)c2C)cc1 [Example 1421]

>  <Label Class>
Condition met

$$$$
>  <Compound>
CCCCCN(CCO)C(=O)c1ccc(Cn2nc(C)c(NC(=O)c3cc(C(F)(F)F)nc4ccc(Br)cc34)c2C)cc1 [Example 1228]

>  <Label Class>
Condition not met

$$$$
>  <Compound>
Cc1nn(Cc2ccc(F)cc2)c(C)c1NC(=O)c1cc(C(F)(F)F)nc2ccc(NS(C)(=O)=O)cc12 [Example 1257]

>  <Label Class>
Condition not met

$$$$
